target: GHS-R (Homo sapiens); experiment: cell based assay of GHS-R antagonist/agonist activity; design: key: A refers to a compound having antagonist activity with Ki<100 nM in a cell based assay; B refers to a compound having agonist activity with EC50<100 nM in a cell based assay; C refers to a compound having antagonist activity of Ki>100 nM and <1500 nM in a cell based assay; D refers to a compound having antagonist activity with Ki, <100 nM and agonist activity with EC50<100 nM in a cell-based assay; E refers to other exemplary compounds; settings: GHS-R antagonist Ki and/or agonist EC50 class
metricName: Activity

compound | targetOrTestSystem | measuredValue
CS(=O)(=O)N1CC2(CCN(C(=O)[C@@H](COCc3ccccc3)N3CCCS3(=O)=O)CC2)c2ccccc21 [Compound 158] | GHS-R (Homo sapiens) | E
CC(C)N1CCC(C(=O)N[C@H](COCc2ccccc2)C(=O)N2CCC3(CC2)CN(S(C)(=O)=O)c2ccccc23)CC1 [Compound 110] | GHS-R (Homo sapiens) | E

----------
target: GHS-R (Homo sapiens, UniProt Q92847); experiment: cell based assay of GHS-R antagonist/agonist activity; parameters: key: A refers to a compound having antagonist activity with Ki<100 nM in a cell based assay; B refers to a compound having agonist activity with EC50<100 nM in a cell based assay; C refers to a compound having antagonist activity of Ki>100 nM and <1500 nM in a cell based assay; D refers to a compound having antagonist activity with Ki, <100 nM and agonist activity with EC50<100 nM in a cell-based assay; E refers to other exemplary compounds; conditions: GHS-R antagonist Ki and/or agonist EC50 class
Sequence (Q92847 whole entry, species assumed): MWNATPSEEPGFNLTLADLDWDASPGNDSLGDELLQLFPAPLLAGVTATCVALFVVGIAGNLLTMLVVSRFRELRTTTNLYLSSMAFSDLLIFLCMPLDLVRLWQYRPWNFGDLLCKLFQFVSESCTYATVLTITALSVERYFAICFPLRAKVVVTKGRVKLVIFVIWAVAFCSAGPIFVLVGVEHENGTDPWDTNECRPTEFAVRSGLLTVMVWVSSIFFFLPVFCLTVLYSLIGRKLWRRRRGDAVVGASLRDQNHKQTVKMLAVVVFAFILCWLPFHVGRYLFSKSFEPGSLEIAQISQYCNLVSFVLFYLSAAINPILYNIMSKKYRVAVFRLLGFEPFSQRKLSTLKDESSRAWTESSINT
metricName: Activity

compound | measuredValue
COC(=O)CC(=O)N1CC2(CCN(C(=O)[C@@H](COCc3ccccc3)NC(=O)OC(C)(C)C)CC2)c2ccccc21 [Compound 60] | E

----------
molecular target: UniProt Q92847; experiment: cell based assay of GHS-R antagonist/agonist activity; set-up: key: A refers to a compound having antagonist activity with Ki<100 nM in a cell based assay; B refers to a compound having agonist activity with EC50<100 nM in a cell based assay; C refers to a compound having antagonist activity of Ki>100 nM and <1500 nM in a cell based assay; D refers to a compound having antagonist activity with Ki, <100 nM and agonist activity with EC50<100 nM in a cell-based assay; E refers to other exemplary compounds; conditions: GHS-R antagonist Ki and/or agonist EC50 class
metricName: Activity

smilesRecord | metricName | measuredValue
CCN(CC)CCC(=O)N[C@H](COCc1ccccc1)C(=O)N1CCC2(CC1)CN(S(C)(=O)=O)c1ccccc12 | Activity | E
CC(C)(C)OC(=O)N[C@H](COCc1ccccc1)C(=O)N1CCC2(CC1)CN(S(=O)(=O)Cc1ccccc1)c1ccccc12 | Activity | E
